Exercise: for every item that follows, state its recorded pIC50.
molecular target: human CYP11B2 (Homo sapiens (Human), UniProt P19099); assay: Cellular assay for CYP11B2 inhibition (V79MZh11B2 hamster fibroblasts, substrate 11-deoxycorticosterone); details: read-out: IC50 value CYP11B2, Hamster fibroblasts expressing human CYP11B2, 100 nM, mean of at least three experiments, n.i. = no inhibition at an inhibitor concentration of 500 nM
Sequence (P19099 25-503): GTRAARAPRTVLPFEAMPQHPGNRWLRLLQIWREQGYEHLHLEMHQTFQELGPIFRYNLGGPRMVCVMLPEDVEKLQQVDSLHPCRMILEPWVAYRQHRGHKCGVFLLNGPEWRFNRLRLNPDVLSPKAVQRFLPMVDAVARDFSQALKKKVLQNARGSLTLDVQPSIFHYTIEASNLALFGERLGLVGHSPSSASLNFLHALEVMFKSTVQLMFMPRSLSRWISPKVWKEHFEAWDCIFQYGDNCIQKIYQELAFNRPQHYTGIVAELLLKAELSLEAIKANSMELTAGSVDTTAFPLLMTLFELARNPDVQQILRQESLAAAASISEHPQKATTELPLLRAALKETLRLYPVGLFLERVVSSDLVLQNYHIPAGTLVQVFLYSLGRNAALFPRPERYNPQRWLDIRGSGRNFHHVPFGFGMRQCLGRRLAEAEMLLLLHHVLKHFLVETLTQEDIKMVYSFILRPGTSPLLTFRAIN
Answers are plain numbers, as −log10 of the molar value.

>>> print(df.to_string())
                         compound  value_kind  observed_result
0  Fc1ccc(-c2ccc(Cn3ccnc3)cn2)cc1       pIC50             5.67

For every item in the list below, what is its measured pIC50?
1. Clc1ncc(Cn2ccnc2)cc1Br
2. c1cncc(-c2ccc(Cn3ccnc3)cn2)c1 [Compound 26, 5-Imidazol-1-ylmethyl-[2,3′]bipyridinyl]
3. O=Cc1ccc(-c2ccc(Cn3ccnc3)cn2)s1
4. c1cn(Cc2ccc(-c3ccsc3)nc2)cn1
5. c1csc(-c2ccc(Cn3ccnc3)cn2)c1

6.24
5.40
6.01
5.49
5.91
